Data provenance is patent US11952330B2.

Reported values of MIC for individual entries
system: A. baumannii; assay: MIC by broth dilution, A. baumannii; format: cell-based; settings: Acinetobacter baumannii; Mueller-Hinton broth, overnight 37° C.; Table 1; read-out: MIC (μg/mL) A. baumannii

Example results:
| COMPOUND | STUDY SYSTEM | MIC |
| --- | --- | --- |
| CCCCCCCCCCCCCOc1ccccc1C(=O)Nc1ccc(C(=O)OCC[N+](C)(CC)CC)cc1.[Br-] [Compound 27] | A. baumannii | > 30 µg/mL |
| CCCCCCCOc1ccccc1C(=O)Nc1ccc(S(=O)(=O)NCC[N+](CC)(CC)CCC)cc1.[Br-] [Compound 83] | A. baumannii | > 30 µg/mL |
| CCCCCCCCCCC[N+](CC)(CC)CCOC(=O)c1ccc(NC(=O)c2ccccc2OCCCCCCCC)cc1.[Br-] [Compound 49] | A. baumannii | > 30 µg/mL |
| CCCCCCCCCCCCOc1ccccc1C(=O)Nc1ccc(C(=O)OCC[N+](C)(CC)CC)cc1.[Br-] [Compound 26] | A. baumannii | > 30 µg/mL |
| CCCCCCCCOc1ccccc1C(=O)Nc1ccc(C(=O)OCC[N+](CC)(CC)CCCCC)cc1.[Br-] [Compound 35] | A. baumannii | 3 to 30 µg/mL |

Consider the compound shown here: CCCCCCCCOc1ccccc1C(=O)Nc1ccc(C(=O)OC2CC[N+](CC)(CCC)CC2)cc1.[Br-] (stereo not shown) [Compound 57] What is its recorded MIC?
3 to 30 µg/mL

Consider the compound shown here: CCCCCCCCOc1cccc(C(=O)Nc2ccc(C(=O)OCC[N+](C)(CC)CC)cc2)c1.[Br-] [Compound 32] What is its recorded MIC?
> 30 µg/mL
